Values compiled from BindingDB's records for doi:10.1021/jm960594+.

- assayed target: Aldo-keto reductase family 1 member A1 (Rattus norvegicus, UniProt P51635)
- Sequence (P51635 whole entry): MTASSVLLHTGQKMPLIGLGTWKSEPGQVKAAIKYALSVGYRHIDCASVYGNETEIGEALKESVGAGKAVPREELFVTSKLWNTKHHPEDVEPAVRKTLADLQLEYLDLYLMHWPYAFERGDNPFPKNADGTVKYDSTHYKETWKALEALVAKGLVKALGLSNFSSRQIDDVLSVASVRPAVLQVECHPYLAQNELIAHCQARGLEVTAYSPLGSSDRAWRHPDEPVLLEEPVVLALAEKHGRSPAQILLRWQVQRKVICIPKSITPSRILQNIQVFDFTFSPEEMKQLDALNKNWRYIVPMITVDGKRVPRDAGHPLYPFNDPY
test readout: IC50

O=C(O)Cn1c(=O)cc(O)n(Cc2cccc([N+](=O)[O-])c2)c1=O | > 100 µM

Tell me IC50 of `O=C(O)Cn1cc(O)n(Cc2cccc([N+](=O)[O-])c2)c1=O` when tested on Aldo-keto reductase family 1 member A1 (Rattus norvegicus, UniProt P51635).
> 100 µM
